IC50 by entry:
- Target system: Succinate-semialdehyde dehydrogenase, mitochondrial (Homo sapiens, UniProt P51649)
- Sequence (P51649 whole entry): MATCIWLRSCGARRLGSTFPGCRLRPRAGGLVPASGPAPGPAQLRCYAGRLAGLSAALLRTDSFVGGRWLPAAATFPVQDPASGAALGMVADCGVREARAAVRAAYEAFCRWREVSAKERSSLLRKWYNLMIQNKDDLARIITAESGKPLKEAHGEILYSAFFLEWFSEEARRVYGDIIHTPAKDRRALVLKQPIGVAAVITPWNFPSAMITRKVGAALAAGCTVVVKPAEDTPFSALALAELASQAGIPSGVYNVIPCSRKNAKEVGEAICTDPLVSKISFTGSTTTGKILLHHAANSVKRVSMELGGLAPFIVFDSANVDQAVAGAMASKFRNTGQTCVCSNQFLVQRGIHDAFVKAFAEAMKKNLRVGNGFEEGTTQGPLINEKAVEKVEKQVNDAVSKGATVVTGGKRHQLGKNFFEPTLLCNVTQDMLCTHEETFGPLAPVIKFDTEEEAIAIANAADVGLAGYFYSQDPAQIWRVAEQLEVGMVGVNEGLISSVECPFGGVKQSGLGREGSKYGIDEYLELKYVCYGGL

These recorded examples may help you get a feel for the data.
Could you share what IC50 was measured for CC(=O)c1ccc(O)cc1 [4-HYDROXYACETOPHENONE] , tested on Succinate-semialdehyde dehydrogenase, mitochondrial (Homo sapiens, UniProt P51649)?
166 µM

Could you share what IC50 was measured for O=C(O)c1ccc(O)cc1 , tested on Succinate-semialdehyde dehydrogenase, mitochondrial (Homo sapiens, UniProt P51649)?
> 1000 µM

Could you share what IC50 was measured for O=Cc1ccc(O[C@@H]2O[C@H](CO)[C@@H](O)[C@@H](O)[C@H]2O)cc1 [HELICIDE] , tested on Succinate-semialdehyde dehydrogenase, mitochondrial (Homo sapiens, UniProt P51649)?
> 1000 µM

Could you share what IC50 was measured for OCc1ccc(O)cc1 [PARAHYDROXYBENZYL ALCOHOL] , tested on Succinate-semialdehyde dehydrogenase, mitochondrial (Homo sapiens, UniProt P51649)?
> 1000 µM

Could you share what IC50 was measured for COc1cc(/C=N/O)ccc1O , tested on Succinate-semialdehyde dehydrogenase, mitochondrial (Homo sapiens, UniProt P51649)?
> 1000 µM

Continuing:
Could you share what IC50 was measured for COc1ccc(C=O)cc1 , tested on Succinate-semialdehyde dehydrogenase, mitochondrial (Homo sapiens, UniProt P51649)?
> 1000 µM

Could you share what IC50 was measured for O=Cc1ccc(O)cc1 [4-HYDROXYBENZALDEHYDE] , tested on Succinate-semialdehyde dehydrogenase, mitochondrial (Homo sapiens, UniProt P51649)?
24.7 µM

---

Observed pIC50 values for 4-aminobutyrate aminotransferase, mitochondrial (Homo sapiens) are listed in what follows.
Interpret pIC50 as the negative base-10 log of the concentration measured in mol/L.

Param item = CC(=O)c1ccc(O)cc1 [4-HYDROXYACETOPHENONE] ; retrieve measured pIC50.
3.73

Param item = COc1cc(C=O)ccc1O ; retrieve measured pIC50.
4.77

Param item = NCc1ccc(O)cc1 ; retrieve measured pIC50.
4.81

Now let's try a different one.
Param item = O=Cc1ccc(O)cc1 [4-HYDROXYBENZALDEHYDE] ; retrieve measured pIC50.
4.78
